- test system: InvD1L (invertebrate specific D1-like dopamine receptor) (Ixodes scapularis, UniProt A0ACM8DGL0)
- Sequence (A0ACM8DGL0 1-457): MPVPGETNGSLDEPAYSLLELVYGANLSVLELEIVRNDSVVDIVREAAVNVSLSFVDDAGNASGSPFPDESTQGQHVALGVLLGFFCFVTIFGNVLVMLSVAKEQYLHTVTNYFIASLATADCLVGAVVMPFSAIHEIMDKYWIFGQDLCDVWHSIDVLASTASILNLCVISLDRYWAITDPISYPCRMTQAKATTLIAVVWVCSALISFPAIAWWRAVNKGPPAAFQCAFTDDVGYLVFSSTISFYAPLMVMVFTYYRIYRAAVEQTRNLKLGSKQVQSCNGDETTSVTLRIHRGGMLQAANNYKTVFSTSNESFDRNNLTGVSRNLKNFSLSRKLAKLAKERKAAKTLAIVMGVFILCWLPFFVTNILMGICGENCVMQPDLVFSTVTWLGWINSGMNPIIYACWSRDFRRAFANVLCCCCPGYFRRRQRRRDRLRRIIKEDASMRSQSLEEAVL
- procedure details: cell-based
metric: pEC50
In plain terms, pEC50 is the concentration in mol/L turned into minus its base-10 logarithm.

Prompt: Please look at this compound and report its pEC50: NCCc1ccc(O)c(O)c1 [DA, dopamine]
Response: 5.87
